Value source: paper PMC11187542

Biological target: SMYD3 (Homo sapiens, UniProt Q9H7B4)
Construct: Full length recombinant SMYD3 was produced as previously reported; made in house; host or cells: E. coli BL21(DE3), in some cases Rosetta 2
Sequence (Q9H7B4 1-428): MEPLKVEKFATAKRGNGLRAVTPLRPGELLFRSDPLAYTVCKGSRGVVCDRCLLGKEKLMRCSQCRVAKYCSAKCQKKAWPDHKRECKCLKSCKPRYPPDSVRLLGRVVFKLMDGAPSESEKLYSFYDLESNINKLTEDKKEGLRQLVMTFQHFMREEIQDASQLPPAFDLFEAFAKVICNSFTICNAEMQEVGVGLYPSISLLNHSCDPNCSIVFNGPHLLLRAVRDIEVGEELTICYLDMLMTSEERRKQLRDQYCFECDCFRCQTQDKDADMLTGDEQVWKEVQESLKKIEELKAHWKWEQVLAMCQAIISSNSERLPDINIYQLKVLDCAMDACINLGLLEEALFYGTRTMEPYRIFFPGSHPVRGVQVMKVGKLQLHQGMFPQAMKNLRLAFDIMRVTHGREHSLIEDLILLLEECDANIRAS
Experiment: X-ray crystallography of SMYD3-fragment complexes (co-crystallization and soaking)
Design: key: success or failure of crystallization in complex with SMYD3: The success (+) or failure (−) of crystallization in complex with SMYD3; The success (+) or failure (−) of crystallization in complex with SMYD3
Settings: 5 mM fragment co-crystallization or soaking
Excerpt: To identify binding sites and binding modes, the fragment hits (Table 1) were used in both co-crystallization and soaking experiments to obtain SMYD3-fragment co-crystals for X-ray crystallographic analyses. Diffraction data of 1.6–1.9 Å maximum resolution were obtained for four fragments (Fig. 5). For data collection and refinement statistics, see ESI, ^† Table S1. Four new sites were thus identified. […]
METRIC_NAME: XRC: success or failure of crystallization in complex with SMYD3

> print(dat)
                                   compound                           target.desc  reported
1                      Nc1ccnc(-c2cccnc2)n1  SMYD3 (Homo sapiens, UniProt Q9H7B4)       (−)
2                         Nc1nc2cccnc2cc1Br  SMYD3 (Homo sapiens, UniProt Q9H7B4)       (−)
3                       O=C(O)C(=O)c1ccccc1  SMYD3 (Homo sapiens, UniProt Q9H7B4)       (+)
4  COc1ccccc1C1OC(=O)CC1C(=O)O (stereo not drawn)  SMYD3 (Homo sapiens, UniProt Q9H7B4)       (−)
5                       Nc1nnc(-c2cccnc2)s1  SMYD3 (Homo sapiens, UniProt Q9H7B4)       (−)
6  CC(C)(C)OC(=O)NC1CCC(CC(=O)O)CC1 (stereo not drawn)  SMYD3 (Homo sapiens, UniProt Q9H7B4)       (−)

---

Molecular target: SMYD3 (Homo sapiens, UniProt Q9H7B4)
Construct: Full length recombinant SMYD3 was produced as previously reported; made in house; host or cells: E. coli BL21(DE3), in some cases Rosetta 2
Sequence (Q9H7B4 1-428): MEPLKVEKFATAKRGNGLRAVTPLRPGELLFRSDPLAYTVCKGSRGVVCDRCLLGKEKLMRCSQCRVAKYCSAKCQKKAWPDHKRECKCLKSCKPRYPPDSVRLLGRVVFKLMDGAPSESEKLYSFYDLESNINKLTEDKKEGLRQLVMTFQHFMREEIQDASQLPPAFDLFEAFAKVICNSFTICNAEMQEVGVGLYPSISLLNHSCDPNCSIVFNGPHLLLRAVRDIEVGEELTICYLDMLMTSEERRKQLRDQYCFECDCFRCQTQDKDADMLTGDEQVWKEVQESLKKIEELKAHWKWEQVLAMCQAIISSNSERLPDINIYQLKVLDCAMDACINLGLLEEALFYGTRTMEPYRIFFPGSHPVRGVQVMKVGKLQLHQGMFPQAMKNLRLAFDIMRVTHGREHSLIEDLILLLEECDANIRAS
Assay: X-ray crystallography of SMYD3-fragment complexes (co-crystallization and soaking)
Parameters: key: success or failure of crystallization in complex with SMYD3: The success (+) or failure (−) of crystallization in complex with SMYD3; The success (+) or failure (−) of crystallization in complex with SMYD3
Conditions: 5 mM fragment co-crystallization or soaking
METRIC_NAME: XRC: success or failure of crystallization in complex with SMYD3

> print(dat)
                                    compound                           target.desc  reported
 1                 COc1ccc(Br)cc1N [FL01938]  SMYD3 (Homo sapiens, UniProt Q9H7B4)       (−)
 2           Nc1ccc(S(N)(=O)=O)cc1 [FL04272]  SMYD3 (Homo sapiens, UniProt Q9H7B4)       (−)
 3  O=c1cc(C(F)(F)F)c2cc(Cl)c(O)cc2o1 [FL01677]  SMYD3 (Homo sapiens, UniProt Q9H7B4)       (−)
 4                  N#Cc1cccc(O)c1 [FL01507]  SMYD3 (Homo sapiens, UniProt Q9H7B4)       (+)
 5   COc1ccc(-n2ncc(C(=O)O)c2C)cc1 [FL01833]  SMYD3 (Homo sapiens, UniProt Q9H7B4)       (−)
 6            Cn1cnc(S(N)(=O)=O)c1 [FL06268]  SMYD3 (Homo sapiens, UniProt Q9H7B4)       (+)
 7       O=C(O)c1cc(Br)c(O)c(Br)c1 [FL01775]  SMYD3 (Homo sapiens, UniProt Q9H7B4)       (−)
 8                N#Cc1cc(Br)ccc1O [FL01750]  SMYD3 (Homo sapiens, UniProt Q9H7B4)       (−)
 9  O=S(=O)(c1ccccc1)C1CCNC1 (stereo not shown) [FL08644]  SMYD3 (Homo sapiens, UniProt Q9H7B4)       (−)
10                 CC(C)c1nsc(N)n1 [FL01791]  SMYD3 (Homo sapiens, UniProt Q9H7B4)       (+)
11               NC(=O)c1cccc(O)c1 [FL08580]  SMYD3 (Homo sapiens, UniProt Q9H7B4)       (−)
12            O=C(O)c1ccnc2ccccc12 [FL02261]  SMYD3 (Homo sapiens, UniProt Q9H7B4)       (−)
13                 Oc1ccc2ccncc2c1 [FL01657]  SMYD3 (Homo sapiens, UniProt Q9H7B4)       (−)
